System: Crude diglycosidase
assayProcedure: Examination of temperature in the conversion into isoflavone aglycons by diglycosidase using soybean materials
Type: biochemical, Penicillium multicolor IAM7153
Parameters: concentration or dose not given beside the values
conditionNotes: 30° C., heat treatment of enzyme yes, reaction time 6 h
assayEndpoint: Decomposition efficiency of glycitin family in defatted soybean (%)
Provide only the numeric value, understood in %.

COc1cc2c(=O)c(-c3ccc(O)cc3)coc2cc1O[C@@H]1O[C@H](COC(=O)CC(=O)O)[C@@H](O)[C@H](O)[C@H]1O [malonylglycitin, 6″-O-malonylglycitin]    45.1

Continue with the next compound.
Challenge: Requested field: Decomposition efficiency of glycitin family in defatted soybean. Item: COc1cc2c(=O)c(-c3ccc(O)cc3)coc2cc1O [glycitein]
Response given: 54.9

* * *

Tested on: Crude diglycosidase
assayProcedure: Examination of pH in the conversion into isoflavone aglycons by diglycosidase using soybean materials
Format: biochemical, Penicillium multicolor IAM7153
conditionNotes: pH6.5, heat treatment of enzyme no, reaction time 6 h, 55° C.
assayEndpoint: Decomposition efficiency of glycitin family in roasted soy flour

COc1cc2c(=O)c(-c3ccc(O)cc3)coc2cc1O[C@@H]1O[C@H](COC(C)=O)[C@@H](O)[C@H](O)[C@H]1O    11.9
COc1cc2c(=O)c(-c3ccc(O)cc3)coc2cc1O[C@@H]1O[C@H](CO)[C@@H](O)[C@H](O)[C@H]1O    not detected
COc1cc2c(=O)c(-c3ccc(O)cc3)coc2cc1O    88.1
COc1cc2c(=O)c(-c3ccc(O)cc3)coc2cc1O[C@@H]1O[C@H](COC(=O)CC(=O)O)[C@@H](O)[C@H](O)[C@H]1O    not detected

* * *

Tested on: Crude diglycosidase
assayProcedure: Examination of substrate concentration in the conversion into isoflavone aglycons by diglycosidase using soybean materials;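 note: percent of the isoflavone family total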
Assay type: biochemical, Penicillium multicolor IAM7153
conditionNotes: roasted soy flour, substrate concentration 10%, heat treatment of enzyme no, reaction time 0 h
Listing of entries alongside the reported Decomposition efficiency: ratio of each glycoside/aglycon within its isoflavone family.
Provide only the numeric value, understood in %.

COc1cc2c(=O)c(-c3ccc(O)cc3)coc2cc1O[C@@H]1O[C@H](COC(C)=O)[C@@H](O)[C@H](O)[C@H]1O    24.2

Continue with the next compound.
Challenge: Requested field: Decomposition efficiency: ratio of each glycoside/aglycon within its isoflavone family. Item: COc1cc2c(=O)c(-c3ccc(O)cc3)coc2cc1O[C@@H]1O[C@H](CO)[C@@H](O)[C@H](O)[C@H]1O
Response given: 70.3

* * *

Tested on: Crude diglycosidase
assayProcedure: Examination of temperature in the conversion into isoflavone aglycons by diglycosidase using soybean materials
Assay type: biochemical, Penicillium multicolor IAM7153
Design: concentration or dose not given beside the values
conditionNotes: 80 °C; heat treatment of enzyme: yes; 6 h
Listing of entries alongside the reported Decomposition efficiency of daidzin family in soymilk.
Provide only the numeric value, understood in %.

Look over these answered cases.
O=c1c(-c2ccc(O)cc2)coc2cc(O[C@@H]3O[C@H](CO)[C@@H](O)[C@H](O)[C@H]3O)ccc12    69.5
O=c1c(-c2ccc(O)cc2)coc2cc(O)ccc12    8.8

Continue with the next compound.
Challenge: Find Decomposition efficiency of daidzin family in soymilk (Crude diglycosidase) for the entry O=C(O)CC(=O)OC[C@H]1O[C@@H](Oc2ccc3c(=O)c(-c4ccc(O)cc4)coc3c2)[C@H](O)[C@@H](O)[C@@H]1O
Response given: 21.8
